- Target desc: KRAS G12S (Homo sapiens, UniProt P01116+P62937, G12S)
- Sequence (P01116 1-169 isoform P01116-2 G12S limits assumed): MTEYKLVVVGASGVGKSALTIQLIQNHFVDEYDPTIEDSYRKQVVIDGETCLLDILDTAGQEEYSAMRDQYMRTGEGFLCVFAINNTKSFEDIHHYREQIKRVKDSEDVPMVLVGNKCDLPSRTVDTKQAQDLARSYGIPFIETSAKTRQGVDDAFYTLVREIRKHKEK
- Sequence (P62937 whole entry): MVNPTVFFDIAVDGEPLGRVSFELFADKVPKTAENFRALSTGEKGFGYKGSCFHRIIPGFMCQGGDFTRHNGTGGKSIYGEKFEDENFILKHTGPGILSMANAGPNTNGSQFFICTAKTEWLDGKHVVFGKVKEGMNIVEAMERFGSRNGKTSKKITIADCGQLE
- Measurement description: Disruption of BRAF RBD interaction with Ras (FRET / MOA assay, with Cyclophilin A)
- Type: biochemical
- Test context: read-out: KRAS G12S FRET data, IC50
Reported endpoint: IC50

Solved entries (count: 2):
C=CC(=O)N1CC[C@H](C(=O)N(C)[C@H](C(=O)N[C@H]2Cc3cc(O)cc(c3)-c3ccc4c(c3)c(c(-c3ccncc3COC)n4CC)CC(C)(C)COC(=O)[C@@H]3CCCN(N3)C2=O)C(C)C)C1 [Example A091] ... 0.1 to 1 µM
CCn1c(-c2cccnc2[C@H](C)OC)c2c3cc(ccc31)-c1csc(n1)C[C@H](NC(=O)C1CCC1)C(=O)N1CCC[C@H](N1)C(=O)OCC(C)(C)C2 [Example A369] ... 0.1 to 1 µM

Please turn your attention to the following entry.
// query Give IC50 for C=CC(=O)N1CC[C@H](C(=O)N(C)[C@H](C(=O)N[C@H]2Cc3cc(O)cc(c3)-c3ccc4c(c3)c(c(C3=C(COC)COCC3)n4CC)CC(C)(C)COC(=O)[C@@H]3CCCN(N3)C2=O)C(C)C)C1 [Example A058]
// result 0.1 to 1 µM

* * *

pIC50 for assorted compounds
- Test system: NCI-H358 (K-Ras G12C)
- Measurement description: CellTiter-Glo cell viability assay
- Type: cell-based
- Test context: Homo sapiens, NCI-H358, 120 h, read-out: H358 Cell Viability assay data IC50, K-Ras G12C, 5-day treatment
- Description: Determination of Cell Viability in RAS Mutant Cancer Cell Lines Protocol: CellTiter-Glo® Cell Viability Assay Note—The following protocol describes a procedure for monitoring cell viability of K-Ras mutant cancer cell lines in response to a compound of the invention. […] Test compounds (132.5 nL) were directly dispensed into the assay plates containing cells. […] Luminescence was measured using the PerkinElmer Enspire. […]
pIC50: −log10 of the molar value.

Solved entries (count: 8):
CCn1c(-c2cccnc2[C@H](C)OC)c2c3cc(ccc31)-c1cc(O)cc(c1)C[C@H](NC(=O)[C@H](C(C)C)N(C)C(=O)CN(C)C(=O)[C@H]1CN1C(C)C)C(=O)N1CCC[C@H](N1)C(=O)OCC(C)(C)C2 (stereo partly drawn) ... > 8.00
CCn1c(-c2cccnc2[C@H](C)OC)c2c3cc(ccc31)-c1cc(O)cc(c1)C[C@H](NC(=O)[C@H](C(C)C)N(C)C(=O)CN(C)C(=O)[C@@H]1N[C@@H]1C1CC1)C(=O)N1CCC[C@H](N1)C(=O)OCC(C)(C)C2 ... 7.00 to 8.00
CC[C@H]1N[C@H]1C(=O)N(C)CC(=O)N(C)[C@H](C(=O)N[C@H]1Cc2cc(O)cc(c2)-c2ccc3c(c2)c(c(-c2cccnc2[C@H](C)OC)n3CC)CC(C)(C)COC(=O)[C@@H]2CCCN(N2)C1=O)C(C)C ... 7.00 to 8.00
CCn1c(-c2cnccc2COC)c2c3cc(ccc31)-c1cc(O)cc(c1)C[C@H](NC(=O)[C@H](C(C)C)N(C)C(=O)CN(C)C(=O)[C@@H]1N[C@@H]1C(=O)OC)C(=O)N1CCC[C@H](N1)C(=O)OCC(C)(C)C2 ... 5.00 to 6.00
CCn1c(-c2cccnc2[C@H](C)OC)c2c3cc(ccc31)-c1cc(O)cc(c1)C[C@H](NC(=O)[C@H](C(C)C)N(C)C(=O)CN(C)C(=O)[C@H]1CN1CCCOC)C(=O)N1CCC[C@H](N1)C(=O)OCC(C)(C)C2 (stereo partly drawn) ... > 8.00
CCn1c(-c2cccnc2[C@H](C)OC)c2c3cc(ccc31)-c1cc(O)cc(c1)C[C@H](NC(=O)[C@H](C(C)C)N(C)C(=O)[C@H](C)N(C)C(=O)[C@H]1CN1)C(=O)N1CCC[C@H](N1)C(=O)OCC(C)(C)C2 ... 7.00 to 8.00
CCn1c(-c2cccnc2[C@H](C)OC)c2c3cc(ccc31)-c1cc(O)cc(c1)C[C@H](NC(=O)[C@H](C(C)C)N(C)C(=O)CN(C)C(=O)[C@@]1(C)CN1)C(=O)N1CCC[C@H](N1)C(=O)OCC(C)(C)C2 ... 7.00 to 8.00
CCn1c(-c2cccnc2[C@H](C)OC)c2c3cc(ccc31)-c1cc(O)cc(c1)C[C@H](NC(=O)[C@H](C(C)C)N(C)C(=O)CN(C)C(=O)[C@H]1N[C@@H]1C1CC1)C(=O)N1CCC[C@H](N1)C(=O)OCC(C)(C)C2 ... > 8.00

Please turn your attention to the following entry.
// query Give pIC50 for CCn1c(-c2cccnc2[C@H](C)OC)c2c3cc(ccc31)-c1cc(O)cc(c1)C[C@H](NC(=O)[C@H](C(C)C)N(C)C(=O)CN(C)C(=O)C1CN1CCOC)C(=O)N1CCC[C@H](N1)C(=O)OCC(C)(C)C2 (stereo partly drawn)
// result > 8.00

Reference for the values: patent US20230233569A1
